Where do the numbers come from? From paper PMC6269909.

Target: Acetylcholinesterase (AChE) type VI-S from electric eel (Electrophorus electricus, UniProt O42275)
Construct: purchased Sigma (St. Louis, MO, USA)
Sequence (O42275 24-633): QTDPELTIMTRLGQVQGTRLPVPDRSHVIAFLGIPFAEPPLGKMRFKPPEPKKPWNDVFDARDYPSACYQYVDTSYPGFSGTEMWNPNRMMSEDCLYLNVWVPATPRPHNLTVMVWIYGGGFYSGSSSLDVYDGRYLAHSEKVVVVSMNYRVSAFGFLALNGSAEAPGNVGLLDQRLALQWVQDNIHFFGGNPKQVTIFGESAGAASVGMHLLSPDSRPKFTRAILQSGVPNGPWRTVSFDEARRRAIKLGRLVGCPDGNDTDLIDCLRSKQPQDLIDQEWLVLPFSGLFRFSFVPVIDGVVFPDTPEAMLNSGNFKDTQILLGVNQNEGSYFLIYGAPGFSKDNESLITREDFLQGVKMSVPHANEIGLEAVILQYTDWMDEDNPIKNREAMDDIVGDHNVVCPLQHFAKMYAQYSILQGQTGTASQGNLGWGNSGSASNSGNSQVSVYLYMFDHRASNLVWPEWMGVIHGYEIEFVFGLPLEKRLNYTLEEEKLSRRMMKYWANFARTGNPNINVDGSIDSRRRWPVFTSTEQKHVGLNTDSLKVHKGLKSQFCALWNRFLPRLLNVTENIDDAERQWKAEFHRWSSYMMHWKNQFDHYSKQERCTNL
Assay: biochemical
Conditions: Table 2; mean of three replicates; read-out: IC50 for inhibition of AChE
Method: Acetylcholinesterase (AChE) type VI-S from electric eel, 5-5′-dithiobis-[2-nitrobenzoicacid] […] Inhibition of acetyl cholinesterase activity of samples was measured by the micro-plate assay adapted. AChE inhibitory activity was measured by slightly modifying the spectrophotometric method from the literature which was initially developed by Ellman. […]
Recorded pIC50 values for a group of compounds are listed next.
Scale note: pIC50 = -log10(concentration in M).

COMPOUND: O=c1c(O)c(-c2ccc(O)c(O[C@@H]3O[C@H](CO)[C@@H](O)[C@H](O)[C@H]3O)c2)oc2cc(O)cc(O)c12 [Quercetin-3′-O-β-D-glucoside]
pIC50: 4.05
--
COMPOUND: O=c1c(O[C@@H]2O[C@H](CO)[C@@H](O)[C@H](O)[C@H]2O)c(-c2ccc(O)c(O)c2)oc2cc(O[C@@H]3O[C@H](CO)[C@@H](O)[C@H](O)[C@H]3O)cc(O)c12
pIC50: 4.17

Kindly review the next compound as well.
**Q:** Tell us which pIC50 value is on record for COc1cc(-c2oc3cc(O[C@@H]4O[C@H](CO)[C@@H](O)[C@H](O)[C@H]4O)cc(O)c3c(=O)c2O)ccc1O [Isorhamnetin-7-O-β-D-glucopyranoside]
**A:** 4.25
